This collection of values is drawn from patent US11965039B2.

- Tested on: classical complement pathway
- Experiment Summary: In vitro haemolysis assay (inhibition of classical complement pathway)
- Format: cell-based, human
- Measurement Setup: human serum, sensitized sheep red blood cells; Table 3, given as upper bounds; read-out: IC50, inhibition of hemolysis
pIC50: −log10 of the molar value.
Result Type: pIC50

Exercise: Item Ac-IC(1)IWQDWGEHRC(1)TEG-K((15-carboxy-pentadecanoyl)-[(Piperazine-1-yl)-acetyl][Peg3][Peg3])-NH2 [Compound 95] has what recorded pIC50?
Solution: > 6.30
